Target: MST1(h) (Homo sapiens)
Sequence (Q13043 1-487): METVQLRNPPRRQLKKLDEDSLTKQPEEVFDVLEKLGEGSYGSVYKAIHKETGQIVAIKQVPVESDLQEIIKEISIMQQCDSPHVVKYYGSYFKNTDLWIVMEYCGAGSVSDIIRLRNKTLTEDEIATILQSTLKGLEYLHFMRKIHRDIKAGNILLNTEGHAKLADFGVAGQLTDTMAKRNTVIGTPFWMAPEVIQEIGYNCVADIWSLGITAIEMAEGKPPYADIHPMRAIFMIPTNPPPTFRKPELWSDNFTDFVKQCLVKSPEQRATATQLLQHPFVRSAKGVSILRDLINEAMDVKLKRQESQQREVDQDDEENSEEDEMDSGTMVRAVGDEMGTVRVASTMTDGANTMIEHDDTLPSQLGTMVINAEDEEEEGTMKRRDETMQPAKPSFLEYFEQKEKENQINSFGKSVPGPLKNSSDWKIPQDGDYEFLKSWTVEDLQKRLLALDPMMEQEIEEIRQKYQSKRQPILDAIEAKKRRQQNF
Experiment: Kinase Profiling Assay
Type: biochemical
Conditions: 100 μM
Value type: % activity (%)
Express the result in % but write the number alone.

Reference set (3 entries):
{"Sequence string": "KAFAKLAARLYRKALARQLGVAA [MMI-0400]", "Uom": "%", "% activity": 6}
{"Sequence string": "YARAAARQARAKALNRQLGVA [MMI-0200]", "Uom": "%", "% activity": 72}
{"Sequence string": "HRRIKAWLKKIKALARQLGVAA [MMI-0500]", "Uom": "%", "% activity": 3}

Continue with the sequence presented below.
Entry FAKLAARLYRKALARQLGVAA [MMI-0300] has what % activity?
14
